testedTarget: RSV postfusion F (postF), F deltaFP (Respiratory Syncytial Virus)
assayComment: BLI, IgG on anti-human IgG sensor, 100 nM antigen
assayMetric: Kd (pM)
Reply with just the number (in pM).

input: Given ADI-41219 (antibody, V domains shown) VH: EVQLVESGGGLVQPAGSLRLSCAASGFTFSNYVMNWVRQAPGKGLEWVSYISSSGRTIHYADSVKGRFTISRDNAKNSLYLEMNSLRAEDTAVYYCARDPNYGGNSNRFDSWGQGTLVTVSS VL: DIVMTQTPSSLSASVGDRVTITCRASQTISNYLNWYQQKPGKAPKLLIFAASSLQSGVPSRFSGSGSGTDFTLTISSLQPEDFATYYCQQSYSAPRVTFGPGTKVDIK , state its recorded Kd.
output: 1280

input: Given ADI-41213 (antibody, V domains shown) VH: EVQLVESGGGLIQPGGSLRLSCAASGFTVSSNYMSWVRQAAGKGLEWVSLIYSGDSTYYADSVKGRFTISRDNSQNTLYLQMNSLRAEDTAVYYCARDASPNVGYYGMDVWGQGTTVTVSS VL: DIVLTQPPSVSVSPGQTASITCSGGKLGDTYACWYQQKPGQSPVLVIYQDSKRPSGIPERFSGSNSGNTATLTISGTQAMDEADYYCQAWDSSTARYVFGTGTKVTVL , state its recorded Kd.
output: 577

input: Given ADI-41202 (antibody, V domains shown) VH: QVQLVESGAEVKKPGSSVKISCKASGGTFSSHPISWVRQAPGQGLEWMGRIVPIFGIANYAQKFQGRVTMIADKSTNTAYMELSNLRSEDTAVYYCASPVYDSSGFQWGQGTLVTVSS VL: QSALIQPRSVSGSPGQSVTISCTGTSGDGGFYNYVSWYQQHPGKTPKLMIYDVDQRPSGVPDRFSGSKSGNTASLTISGLQAEDEADYYCCSYPGNPLYVFGTGTKLTVL , state its recorded Kd.
output: 333

input: Given ADI-41200 (antibody, V domains shown) VH: EVQLLESGGGLVKPGGSLRLSCAASGLTFSDHDMSWVRQAPGKGLEWVSGIGGSGSNTYYAGSVKGRFTISRDNSKNTLYLQMDSLRVEDTAVYYCAKDPYGDYRDYYGMDVWGQGTTVTVSS VL: DIVLTQTPFSLPVTPGEPASISCRSSQSLLKSNGYNYLDWFLQKPGQSPQLLIYLGSNRASGVPDRFSGSGSGTDFTLKISRVEAEDVGVYYCMQTLQALYTFGQGTKVEIK , state its recorded Kd.
output: 318

input: Given ADI-41173 (antibody, V domains shown) VH: QVQLVQSGAEMKKPGSSAKVSCKASGGTLSSYAINWVRQAPGQGLEWMGGIIPIFGTTKYAPKFQDRVTITVDESTSTAYMELSSLRSEDTAVYYCSRESSTWDVAHYFDYWGQGTLVTVSS VL: DIVMTQTPSAISASVGDRVTITCRASQGISNYLAWVQQKPGKVPKRLIYGASSLQSGVPSRFSGSGSGTEFTLTISSLQPEDFATYYCLQHNSYPYTFGQGTKVEIK , state its recorded Kd.
output: 294
